Target: DNA topoisomerase II (Homo sapiens) (UniProt P11388+Q02880)
Assay: Compound tested for ability to form a cellular covalent topoisomerase II-DNA complex.
Assay type: functional
Listed compounds paired with reported Protein-DNA complex formation
assay metric: Protein-DNA complex formation (%)

1. COc1cc([C@@H]2c3cc4c(cc3[C@@H](OC(=O)c3ccccc3)[C@H]3COC(=O)[C@H]23)OCO4)cc(OC)c1O : 94
2. COc1cc([C@@H]2c3cc4c(cc3[C@@H](NCc3cccc(N)c3)[C@H]3COC(=O)[C@H]23)OCO4)cc(OC)c1O : 191
3. COc1cc([C@@H]2c3cc4c(cc3[C@@H](O)[C@H]3COC(=O)[C@H]23)OCO4)cc(OC)c1O : 42.2
4. COc1cc([C@@H]2c3cc4c(cc3[C@H](O)[C@H]3COC(=O)[C@H]23)OCO4)cc(OC)c1O : 3.3
5. COc1cc([C@@H]2c3cc4c(cc3[C@@H](NCc3ccccc3F)[C@H]3COC(=O)[C@H]23)OCO4)cc(OC)c1O : 126
6. COc1cc([C@@H]2c3cc4c(cc3[C@@H](OC(=O)c3ccc(N)cc3)[C@H]3COC(=O)[C@H]23)OCO4)cc(OC)c1O : 94
7. COc1cc([C@@H]2c3cc4c(cc3[C@@H](Nc3cccc([N+](=O)[O-])c3)[C@H]3COC(=O)[C@H]23)OCO4)cc(OC)c1O : 230

----------
Molecular target: DNA topoisomerase II (Homo sapiens) (UniProt P11388+Q02880)
Experiment: Compound tested for ability to form a cellular covalent topoisomerase II-DNA complex.
Assay type: functional
assay metric: Protein-DNA complex formation (%)

1) COc1cc([C@@H]2c3cc4c(cc3[C@@H](Nc3cc(OC)c(OC)c(OC)c3)[C@H]3COC(=O)[C@H]23)OCO4)cc(OC)c1O : 47
2) CCOC(=O)c1ccccc1N[C@@H]1c2cc3c(cc2[C@@H](c2cc(OC)c(O)c(OC)c2)[C@H]2C(=O)OC[C@@H]21)OCO3 : 4
3) COc1cc([C@@H]2c3cc4c(cc3[C@@H](Nc3cc([N+](=O)[O-])ccc3O)[C@H]3COC(=O)[C@H]23)OCO4)cc(OC)c1O : 15
4) COc1cc([C@@H]2c3cc4c(cc3[C@@H](Nc3cc(N)ccc3O)[C@H]3COC(=O)[C@H]23)OCO4)cc(OC)c1O : 11
5) COc1cc([C@@H]2c3cc4c(cc3[C@@H](NCc3cccc(F)c3)[C@H]3COC(=O)[C@H]23)OCO4)cc(OC)c1O : 216
6) COC(=O)c1cc(N[C@@H]2c3cc4c(cc3[C@@H](c3cc(OC)c(O)c(OC)c3)[C@H]3C(=O)OC[C@@H]32)OCO4)cc(C(=O)OC)c1 : 50
7) COC(=O)c1cc(N[C@@H]2c3cc4c(cc3[C@@H](c3cc(OC)c(O)c(OC)c3)[C@H]3C(=O)OC[C@@H]32)OCO4)ccc1O : 83

----------
Target: DNA topoisomerase II (Homo sapiens) (UniProt P11388+Q02880)
Experiment: Compound tested for ability to form a cellular covalent topoisomerase II-DNA complex.
Assay type: functional
assay metric: Protein-DNA complex formation (%)

1. COc1cc([C@@H]2c3cc4c(cc3[C@@H](Nc3cc(C(F)(F)F)cc(C(F)(F)F)c3)[C@H]3COC(=O)[C@H]23)OCO4)cc(OC)c1O : 21
2. COc1cc([C@@H]2c3cc4c(cc3[C@@H](Nc3ccccc3F)[C@H]3COC(=O)[C@H]23)OCO4)cc(OC)c1O : 121
3. COc1cc([C@@H]2c3cc4c(cc3[C@@H](NC(=O)c3ccc(C(C)=O)cc3)[C@H]3COC(=O)[C@H]23)OCO4)cc(OC)c1O : 124
4. COc1cc([C@@H]2c3cc4c(cc3[C@@H](NC(=O)c3ccc(C#N)cc3)[C@H]3COC(=O)[C@H]23)OCO4)cc(OC)c1O : 159
5. COc1cc([C@@H]2c3cc4c(cc3[C@@H](Nc3cccc(C#N)c3)[C@H]3COC(=O)[C@H]23)OCO4)cc(OC)c1O : 137
6. COc1cc([C@@H]2c3cc4c(cc3[C@@H](Nc3ccc(F)cc3)[C@H]3COC(=O)[C@H]23)OCO4)cc(OC)c1O : 213
7. COc1ccc(N[C@@H]2c3cc4c(cc3[C@@H](c3cc(OC)c(O)c(OC)c3)[C@H]3C(=O)OC[C@@H]32)OCO4)cc1OC : 180
8. COc1cc([C@@H]2c3cc4c(cc3[C@@H](Nc3ccccc3O)[C@H]3COC(=O)[C@H]23)OCO4)cc(OC)c1O : 151
9. COc1cc([C@@H]2c3cc4c(cc3[C@@H](Nc3cccc(N)c3)[C@H]3COC(=O)[C@H]23)OCO4)cc(OC)c1O : 140
10. COc1cc([C@@H]2c3cc4c(cc3[C@@H](NCCCO)[C@H]3COC(=O)[C@H]23)OCO4)cc(OC)c1O : 89.2
11. COc1cc([C@@H]2c3cc4c(cc3[C@@H](NC(=O)c3ccc(N)cc3)[C@H]3COC(=O)[C@H]23)OCO4)cc(OC)c1O : 120
12. COc1cc([C@@H]2c3cc4c(cc3[C@@H](Nc3ccc(I)cc3)[C@H]3COC(=O)[C@H]23)OCO4)cc(OC)c1O : 64
13. COc1cc([C@@H]2c3cc4c(cc3[C@@H](Nc3ccc(O)cc3)[C@H]3COC(=O)[C@H]23)OCO4)cc(OC)c1O : 211
14. CCOC(=O)c1ccc(N[C@@H]2c3cc4c(cc3[C@@H](c3cc(OC)c(O)c(OC)c3)[C@H]3C(=O)OC[C@@H]32)OCO4)cc1 : 207
15. COc1cc([C@@H]2c3cc4c(cc3[C@@H](NC(=O)c3cccc(C#N)c3)[C@H]3COC(=O)[C@H]23)OCO4)cc(OC)c1O : 149
16. COc1cc([C@@H]2c3cc4c(cc3[C@@H](Nc3cccc(O)c3)[C@H]3COC(=O)[C@H]23)OCO4)cc(OC)c1O : 290
17. COc1cc([C@@H]2c3cc4c(cc3[C@@H](Nc3cccc(F)c3)[C@H]3COC(=O)[C@H]23)OCO4)cc(OC)c1O : 158
18. COC(=O)c1cccc(N[C@@H]2c3cc4c(cc3[C@@H](c3cc(OC)c(O)c(OC)c3)[C@H]3C(=O)OC[C@@H]32)OCO4)c1 : 249
19. COc1cc([C@@H]2c3cc4c(cc3[C@@H](Nc3ccccc3)[C@H]3COC(=O)[C@H]23)OCO4)cc(OC)c1O : 243
20. COc1cc([C@@H]2c3cc4c(cc3[C@@H](Oc3ccc(O)cc3)[C@H]3COC(=O)[C@H]23)OCO4)cc(OC)c1O : 34
21. COc1cc([C@@H]2c3cc4c(cc3[C@@H](NCCO)[C@H]3COC(=O)[C@H]23)OCO4)cc(OC)c1O : 121
22. COc1cc([C@@H]2c3cc4c(cc3[C@@H](NC(=O)c3ccccc3)[C@H]3COC(=O)[C@H]23)OCO4)cc(OC)c1O : 177
23. COc1cc([C@@H]2c3cc4c(cc3[C@@H](NC(=O)c3ccc(F)cc3)[C@H]3COC(=O)[C@H]23)OCO4)cc(OC)c1O : 117
24. COC(=O)c1ccc(N[C@@H]2c3cc4c(cc3[C@@H](c3cc(OC)c(O)c(OC)c3)[C@H]3C(=O)OC[C@@H]32)OCO4)cc1O : 129
25. COc1cc([C@@H]2c3cc4c(cc3[C@@H](Nc3ccc(N)cc3)[C@H]3COC(=O)[C@H]23)OCO4)cc(OC)c1O : 330
26. COc1cc([C@@H]2c3cc4c(cc3[C@@H](Nc3cccc(Cl)c3)[C@H]3COC(=O)[C@H]23)OCO4)cc(OC)c1O : 51
27. COc1cc([C@@H]2c3cc4c(cc3[C@@H](NC(=O)c3ccccc3O)[C@H]3COC(=O)[C@H]23)OCO4)cc(OC)c1O : 160
28. COc1cc([C@@H]2c3cc4c(cc3[C@@H](Nc3ccc([N+](=O)[O-])cc3)[C@H]3COC(=O)[C@H]23)OCO4)cc(OC)c1O : 323
29. COc1cc([C@@H]2c3cc4c(cc3[C@@H](NC(=O)c3cccc(F)c3)[C@H]3COC(=O)[C@H]23)OCO4)cc(OC)c1O : 116
30. C=CCN[C@@H]1c2cc3c(cc2[C@@H](c2cc(OC)c(O)c(OC)c2)[C@H]2C(=O)OC[C@@H]21)OCO3 : 84.1
31. COc1cc([C@@H]2c3cc4c(cc3[C@@H](Nc3ccc(N5CCOCC5)cc3)[C@H]3COC(=O)[C@H]23)OCO4)cc(OC)c1O : 140
